Target: full-length NS3 (1-631) protein (HCV NS3 helicase) (Hepatitis C virus genotype 1a)
Construct: Recombinant, purified, full-length NS3 (1-631) protein
Sequence (P27958 1027-1657 T1100M/T1173A/K1247Q/A1303G/S1327L/G1556E/R1608W): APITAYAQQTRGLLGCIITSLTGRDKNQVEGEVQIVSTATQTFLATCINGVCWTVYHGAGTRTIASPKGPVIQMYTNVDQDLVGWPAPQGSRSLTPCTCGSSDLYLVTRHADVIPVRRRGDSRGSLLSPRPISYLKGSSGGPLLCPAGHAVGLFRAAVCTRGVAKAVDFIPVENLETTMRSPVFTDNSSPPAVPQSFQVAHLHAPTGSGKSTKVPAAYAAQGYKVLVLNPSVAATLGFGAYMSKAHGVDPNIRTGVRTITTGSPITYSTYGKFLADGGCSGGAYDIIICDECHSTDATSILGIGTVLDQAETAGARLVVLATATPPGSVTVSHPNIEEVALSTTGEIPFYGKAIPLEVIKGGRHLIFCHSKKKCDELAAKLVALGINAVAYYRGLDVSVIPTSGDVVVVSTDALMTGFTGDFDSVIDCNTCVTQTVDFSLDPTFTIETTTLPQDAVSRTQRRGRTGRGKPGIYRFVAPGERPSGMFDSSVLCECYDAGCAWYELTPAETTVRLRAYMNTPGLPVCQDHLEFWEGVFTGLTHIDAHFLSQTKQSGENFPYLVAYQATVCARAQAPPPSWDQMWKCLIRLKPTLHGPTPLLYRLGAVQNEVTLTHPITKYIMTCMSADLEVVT
Test: HCV Helicase TR-FRET Unwinding Assay
Format: biochemical
Settings: Table 4, inhibition of DNA unwinding, 2.5 nM NS3, 100 μM ATP
pIC50: −log10 of the molar value.
metric: pIC50

• O=C(O)C1CCN(C(=O)/C=C/c2ccc(Sc3ccc(F)cc3)cc2Cl)CC1 = 4.30 to 5.00
• Cc1cc(/C=C/C(=O)N2CCOCC2)c(Cl)cc1Sc1ccc(F)cc1 = 4.30 to 5.00
• Cc1cc(/C=C/C(=O)NCCC(=O)O)c(Cl)cc1Sc1ccc(F)cc1 = 4.30 to 5.00
• COc1ccccc1Sc1ccc(/C=C/C(=O)N2CCC(N3CCCC3)CC2)c(Cl)c1 = 4.30 to 5.00
• CCN(CC)C(=O)/C=C/c1ccc(Sc2ccccc2OC)cc1Cl = 4.30 to 5.00

Give full-length NS3 (1-631) protein (HCV NS3 helicase) (Hepatitis C virus genotype 1a) pIC50 for `COc1ccccc1Sc1ccc(/C=C/C(=O)NCCC(=O)O)c(Cl)c1`
4.30 to 5.00

Give full-length NS3 (1-631) protein (HCV NS3 helicase) (Hepatitis C virus genotype 1a) pIC50 for `CN(C)c1ccc(/C=C/C(=O)N2CCN(C(=O)c3ccoc3)CC2)c(Cl)c1`
4.30 to 5.00

Give full-length NS3 (1-631) protein (HCV NS3 helicase) (Hepatitis C virus genotype 1a) pIC50 for `COC(=O)C1CCN(C(=O)/C=C/c2ccc(N(C)C)cc2Cl)CC1`
4.30 to 5.00

Give full-length NS3 (1-631) protein (HCV NS3 helicase) (Hepatitis C virus genotype 1a) pIC50 for `CCN(CC)C(=O)/C=C/c1cc(C)c(Sc2ccc(F)cc2)cc1Cl`
4.30 to 5.00
